- testedTarget: Cytochrome P450 2D6 (Homo sapiens);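 also: CYP2D6 member of a cytochrome P450 panel assay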
- Sequence (P10635 whole entry): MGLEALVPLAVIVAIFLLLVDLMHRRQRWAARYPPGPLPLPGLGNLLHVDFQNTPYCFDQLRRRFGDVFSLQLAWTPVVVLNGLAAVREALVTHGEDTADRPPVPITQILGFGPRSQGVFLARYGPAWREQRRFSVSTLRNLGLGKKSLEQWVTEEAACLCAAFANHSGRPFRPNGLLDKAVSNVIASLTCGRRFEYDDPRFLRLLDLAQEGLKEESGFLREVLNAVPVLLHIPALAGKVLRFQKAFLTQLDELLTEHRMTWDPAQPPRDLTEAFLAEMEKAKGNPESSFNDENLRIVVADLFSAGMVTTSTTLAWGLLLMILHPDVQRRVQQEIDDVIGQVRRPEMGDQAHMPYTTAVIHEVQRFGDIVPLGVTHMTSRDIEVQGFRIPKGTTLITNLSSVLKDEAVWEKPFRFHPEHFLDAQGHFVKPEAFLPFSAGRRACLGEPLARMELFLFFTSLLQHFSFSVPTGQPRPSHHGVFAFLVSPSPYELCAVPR
List of AC50 values.

Look over these answered cases.
COc1cccc(OC)c1OCCCN1CCOCC1 ... 39.8 µM (inconclusive)
Cc1ccc(NCC(=O)N/N=C/c2ccc(OC(=O)c3ccco3)cc2)cc1 ... 15.8 µM (inconclusive)
NC(=Nc1ccccc1)NC(=O)c1nc(Cl)c(N)nc1N [PHENAMIL METHANESULFONATE] ... 31.6 µM (inconclusive)
FC(F)(F)c1ccccc1-c1nc(NC2CC2)c2ccccc2n1 ... 31.6 µM (inconclusive)
Cn1ncc([N+](=O)[O-])c1C(=O)Nc1ccc2c(c1)OCCO2 ... 12.6 µM (inconclusive)
CCCCCCCCC(=O)NCc1ccc(O)c(OC)c1 [NONIVAMIDE] ... 25.1 µM (inconclusive)
Cc1ccc(S(=O)(=O)O[C@H]2CN3CCC2CC3)cc1 ... 3.98 µM (inconclusive)

Next compound, AC50 to be filled in.
# input compound: COc1ccccc1CNc1ncnc2ccc(-c3ccc(C(=O)N(C)C)cc3)cc12 ; wanted: its AC50
39.8 µM (inconclusive)
